Source listed as ChEMBL document CHEMBL1151440.

- assay.remarks: Tmax in fasted human at 200 mg administered with fat meal as single dose
- Type: ADME, organism-based
- protocol.conditions: in vivo
value.type: Tmax (h)
Return type: number; implicit unit h.

Query: Given the compound Cn1c(=O)c(C(=O)NCCO)c(O)c2ncc(Cc3ccc(F)cc3)cc21 [GSK-364735] , write its reported Tmax.
Result: 4

----------
- assay.remarks: Terminal elimination half life in human at 200 mg administered with fat meal every 12 hrs for 8 days measured on day 1
- Assay type: ADME, organism-based
- protocol.conditions: in vivo, read-out: beta t1/2 (converted)
value.type: half-life (h)
Return type: number; implicit unit h.

Query: Given the compound "Cn1c(=O)c(C(=O)NCCO)c(O)c2ncc(Cc3ccc(F)cc3)cc21" , write its reported half-life.
Result: 3.9

----------
- assay.remarks: AUC (0 to infinity) in fasted human at 50 mg administered as single dose
- Assay type: ADME, organism-based
- Set-up: dose 50 mg, time infinity
- protocol.conditions: plasma
value.type: AUC(0-inf) (ng·h/mL)
Return type: number; implicit unit ng·h/mL.

Query: Given the molecule Cn1c(=O)c(C(=O)NCCO)c(O)c2ncc(Cc3ccc(F)cc3)cc21 [GSK-364735] , write its reported AUC(0-inf).
Result: 3200

----------
- assay.remarks: Terminal elimination half life in fasted human at 50 mg administered as single dose
- Assay type: ADME, organism-based
- protocol.conditions: in vivo, read-out: beta t1/2 (converted)
value.type: half-life (min)
Return type: number; implicit unit min.

Query: Given the compound Cn1c(=O)c(C(=O)NCCO)c(O)c2ncc(Cc3ccc(F)cc3)cc21 [GSK-364735] , write its reported half-life.
Result: 186

----------
- assay.remarks: Apparent oral clearance in human at 400 mg administered with fat meal daily for 8 days measured on day 8
- Format: ADME, organism-based
- protocol.conditions: in vivo
value.type: CL/F (mL/min)
Return type: number; implicit unit mL/min.

Query: Given the compound "Cn1c(=O)c(C(=O)NCCO)c(O)c2ncc(Cc3ccc(F)cc3)cc21" , write its reported CL/F.
Result: 550

----------
- assay.remarks: Apparent oral clearance in human at 200 mg administered with fat meal every 12 hrs for 8 days measured on day 1
- Format: ADME, organism-based
- protocol.conditions: in vivo
value.type: CL/F (mL/min)
Return type: number; implicit unit mL/min.

Query: Given the molecule Cn1c(=O)c(C(=O)NCCO)c(O)c2ncc(Cc3ccc(F)cc3)cc21 [GSK-364735] , write its reported CL/F.
Result: 367

----------
- assay.remarks: Cmax in fasted human at 200 mg administered as single dose
- Format: ADME, organism-based
- Set-up: dose 200 mg
- protocol.conditions: in vivo
value.type: Cmax (ng/mL)
Return type: number; implicit unit ng/mL.

Query: Given the compound Cn1c(=O)c(C(=O)NCCO)c(O)c2ncc(Cc3ccc(F)cc3)cc21 [GSK-364735] , write its reported Cmax.
Result: 1100

----------
- assay.remarks: Cmax in fasted human at 50 mg administered as single dose
- Assay type: ADME, organism-based
- Set-up: dose 50 mg
- protocol.conditions: in vivo
value.type: Cmax

Query: Given the compound "Cn1c(=O)c(C(=O)NCCO)c(O)c2ncc(Cc3ccc(F)cc3)cc21" , write its reported Cmax.
Result: 760 ng/mL

----------
- assay.remarks: Terminal elimination half life in human at 200 mg administered with fat meal every 12 hrs for 8 days measured on day 8
- Format: ADME, organism-based
- protocol.conditions: in vivo, read-out: beta t1/2 (converted)
value.type: half-life (h)
Return type: number; implicit unit h.

Query: Given the compound "Cn1c(=O)c(C(=O)NCCO)c(O)c2ncc(Cc3ccc(F)cc3)cc21" , write its reported half-life.
Result: 2.8

----------
- assay.remarks: Cmax in human at 400 mg administered with fat meal daily for 8 days measured on day 1
- Assay type: ADME, organism-based
- Design: dose 400 mg
- protocol.conditions: in vivo
value.type: Cmax

Query: Given the compound Cn1c(=O)c(C(=O)NCCO)c(O)c2ncc(Cc3ccc(F)cc3)cc21 [GSK-364735] , write its reported Cmax.
Result: 2200 ng/mL

----------
- assay.remarks: Tmax in fasted human at 400 mg administered as single dose
- Type: ADME, organism-based
- protocol.conditions: in vivo
value.type: Tmax (h)
Return type: number; implicit unit h.

Query: Given the compound "Cn1c(=O)c(C(=O)NCCO)c(O)c2ncc(Cc3ccc(F)cc3)cc21" , write its reported Tmax.
Result: 2.2

----------
- assay.remarks: Terminal elimination half life in fasted human at 200 mg administered as single dose
- Format: ADME, organism-based
- protocol.conditions: in vivo, read-out: beta t1/2 (converted)
value.type: half-life

Query: Given the compound Cn1c(=O)c(C(=O)NCCO)c(O)c2ncc(Cc3ccc(F)cc3)cc21 [GSK-364735] , write its reported half-life.
Result: 5.3 h

----------
- assay.remarks: Cmax in human at 400 mg administered with fat meal as single dose
- Format: ADME, organism-based
- Set-up: dose 400 mg
- protocol.conditions: in vivo
value.type: Cmax (ng/mL)
Return type: number; implicit unit ng/mL.

Query: Given the molecule "Cn1c(=O)c(C(=O)NCCO)c(O)c2ncc(Cc3ccc(F)cc3)cc21" , write its reported Cmax.
Result: 840

----------
- assay.remarks: Plasma concentration in human at 50 mg administered with fat meal every 12 hrs for 8 days measured on day 1 after 12 hrs of first dose
- Assay type: ADME, organism-based
value.type: concentration at 12 h (ng/mL)
Return type: number; implicit unit ng/mL.

Query: Given the compound "Cn1c(=O)c(C(=O)NCCO)c(O)c2ncc(Cc3ccc(F)cc3)cc21" , write its reported concentration at 12 h.
Result: 93

----------
- assay.remarks: AUC (0 to infinity) in human at 200 mg administered with fat meal every 8 hrs for 8 days measured on day 1
- Format: ADME, organism-based
- Design: dose 200 mg, time infinity
- protocol.conditions: plasma
value.type: AUC(0-inf) (ng·h/mL)
Return type: number; implicit unit ng·h/mL.

Query: Given the compound "Cn1c(=O)c(C(=O)NCCO)c(O)c2ncc(Cc3ccc(F)cc3)cc21" , write its reported AUC(0-inf).
Result: 5900

----------
- assay.remarks: Apparent oral clearance in human at 100 mg administered with fat meal every 12 hrs for 8 days measured on day 8
- Assay type: ADME, organism-based
- protocol.conditions: in vivo
value.type: CL/F (mL/min)
Return type: number; implicit unit mL/min.

Query: Given the compound "Cn1c(=O)c(C(=O)NCCO)c(O)c2ncc(Cc3ccc(F)cc3)cc21" , write its reported CL/F.
Result: 138

----------
- assay.remarks: Apparent oral clearance in human at 200 mg administered with fat meal every 8 hrs for 8 days measured on day 8
- Format: ADME, organism-based
- protocol.conditions: in vivo
value.type: CL/F (mL/min)
Return type: number; implicit unit mL/min.

Query: Given the molecule "Cn1c(=O)c(C(=O)NCCO)c(O)c2ncc(Cc3ccc(F)cc3)cc21" , write its reported CL/F.
Result: 683

----------
- assay.remarks: Tmax in human at 200 mg administered with fat meal every 12 hrs for 8 days measured on day 8
- Type: ADME, organism-based
- protocol.conditions: in vivo
value.type: Tmax
Quick note: number first, unit second.

Query: Given the compound Cn1c(=O)c(C(=O)NCCO)c(O)c2ncc(Cc3ccc(F)cc3)cc21 [GSK-364735] , write its reported Tmax.
Result: 3 h

----------
- assay.remarks: Cmax in human at 100 mg administered with fat meal every 12 hrs for 8 days measured on day 8
- Assay type: ADME, organism-based
- Set-up: dose 100 mg
- protocol.conditions: in vivo
value.type: Cmax (ng/mL)
Return type: number; implicit unit ng/mL.

Query: Given the compound "Cn1c(=O)c(C(=O)NCCO)c(O)c2ncc(Cc3ccc(F)cc3)cc21" , write its reported Cmax.
Result: 2600

----------
- assay.remarks: AUC (0 to infinity) in human at 50 mg administered with fat meal every 12 hrs for 8 days measured on day 1
- Assay type: ADME, organism-based
- Set-up: dose 50 mg, time infinity
- protocol.conditions: plasma
value.type: AUC(0-inf) (ng·h/mL)
Return type: number; implicit unit ng·h/mL.

Query: Given the compound Cn1c(=O)c(C(=O)NCCO)c(O)c2ncc(Cc3ccc(F)cc3)cc21 [GSK-364735] , write its reported AUC(0-inf).
Result: 4000

----------
- assay.remarks: Apparent oral clearance in fasted human at 400 mg administered as single dose
- Assay type: ADME, organism-based
- protocol.conditions: in vivo
value.type: CL/F (mL/min)
Return type: number; implicit unit mL/min.

Query: Given the molecule Cn1c(=O)c(C(=O)NCCO)c(O)c2ncc(Cc3ccc(F)cc3)cc21 [GSK-364735] , write its reported CL/F.
Result: 1020

----------
- assay.remarks: Apparent oral clearance in human at 200 mg administered with fat meal every 8 hrs for 8 days measured on day 1
- Format: ADME, organism-based
- protocol.conditions: in vivo
value.type: CL/F (mL/min)
Return type: number; implicit unit mL/min.

Query: Given the compound "Cn1c(=O)c(C(=O)NCCO)c(O)c2ncc(Cc3ccc(F)cc3)cc21" , write its reported CL/F.
Result: 567
